Assay: Protein binding measurements in human plasma (Hu PPB)
Type: in vitro ADME
Conditions: equilibrium dialysis for 18 hours, fraction unbound
measure_name: Hu PPB (% free)
Numeric answer plus unit only.

Worked examples, 3 molecules total:
test_smiles=C=CC(=O)N1C[C@@H](CO)[C@H](Nc2nnc(-c3ccc(C(F)(F)F)cc3)c3ncccc23)C1 measure_name="Hu PPB (% free)" recorded_result="12.0 % free"
test_smiles=C=CC(=O)NCC1(Nc2nnc(-c3ccc(C(F)(F)F)cc3)c3ccccc23)CCC1 measure_name="Hu PPB (% free)" recorded_result="0.8 % free"
test_smiles=C=CC(=O)N1C[C@H](O)[C@H](Nc2nnc(-c3ccc(C(F)(F)F)cc3)c3cccnc23)C1 measure_name="Hu PPB (% free)" recorded_result="17.0 % free"

# next molecule below
If you can, please state the reported Hu PPB (% free) value of C=CC(=O)N1C[C@@H](CO)[C@H](Nc2nnc(-c3ccc(C(F)(F)F)cc3)c3cccc(F)c23)C1 .
11.0 % free
